Target sequence: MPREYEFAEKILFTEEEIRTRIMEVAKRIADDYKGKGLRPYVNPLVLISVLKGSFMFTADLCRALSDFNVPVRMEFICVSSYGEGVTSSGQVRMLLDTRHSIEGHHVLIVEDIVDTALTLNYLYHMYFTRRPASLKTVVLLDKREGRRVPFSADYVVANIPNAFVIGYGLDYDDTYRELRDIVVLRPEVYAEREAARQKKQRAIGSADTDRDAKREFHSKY
reported metric: pKd
# reply with the number alone; pKd is -log10 of concentration in mol/L

[ask] Query: pKd; subject: O=P(O)(O)OC[C@H]1O[C@H](OP(=O)(O)OP(=O)(O)O)[C@H](O)[C@@H]1O [PRPP, 5-phospho-α-D-ribose 1-diphosphate]
[reply] 3.85
